This collection of values is drawn from ChEMBL document CHEMBL5634182.

- System: Penicillium digitatum
- method.notes: Antifungal activity against Penicillium digitatum QDAU-14 assessed as reduction in microbial growth by broth microdilution method
- Type: functional
// reported MIC for each item listed
observation.type: MIC (µg/mL)

>>> meas_value("C=C1CC[C@@]2(O)C[C@@H]1[C@]2(C)CC(=O)C=C(C)C")
4
>>> meas_value("C=C1[C@H](O)C[C@H]2C[C@@H]1[C@](C)([C@H](O)CC=C(C)C)O2")
8
>>> meas_value("C[C@@H]1[C@H](O)[C@@H](C)/C=C/C=C/C=C/C=C/C=C/C=C/C=C/[C@H](O[C@@H]2O[C@H](C)[C@@H](O)[C@H](N)[C@@H]2O)C[C@@H]2O[C@](O)(C[C@@H](O)C[C@@H](O)[C@H](O)CC[C@@H](O)C[C@@H](O)CC(=O)O[C@H]1C)C[C@H](O)[C@H]2C(=O)O [AMPHOTERICIN B]")
4
>>> meas_value("C=C1CC[C@@]2(O)C[C@@H]1[C@]2(C)[C@@H](/C=C/C(C)(C)O)OC(C)=O")
4
>>> meas_value("C=C1CC[C@@]2(O)C[C@@H]1[C@]2(C)[C@H](OC(C)=O)C(=O)C=C(C)C")
8

###

- Tested on: Edwardsiella tarda
- method.notes: Antibacterial activity against Edwardsiella tarda QDIO-2 assessed as reduction in microbial growth by broth microdilution method
- Type: functional
// reported MIC for each item listed
observation.type: MIC (µg/mL)

>>> meas_value("C=C1CC[C@H](O)C[C@@H]1[C@@](C)(O)C(=O)/C=C/C(C)(C)O")
16
>>> meas_value("O=C(N[C@H](CO)[C@H](O)c1ccc([N+](=O)[O-])cc1)C(Cl)Cl")
2
>>> meas_value("C=C1CC[C@@]2(O)C[C@@H]1[C@]2(C)[C@@H](CC=C(C)C)OC(C)=O")
4

###

- System: Vibrio harveyi
- method.notes: Antibacterial activity against Vibrio harveyi QDIO-7 assessed as reduction in microbial growth by broth microdilution method
- Assay type: functional
observation.type: MIC (µg/mL)

>>> meas_value("C=C1CC[C@@]2(O)C[C@@H]1[C@]2(C)[C@@H](CC=C(C)C)OC(C)=O")
16
>>> meas_value("O=C(N[C@H](CO)[C@H](O)c1ccc([N+](=O)[O-])cc1)C(Cl)Cl [CHLORAMPHENICOL]")
0.5
>>> meas_value("C=C1CC[C@@]2(O)C[C@@H]1[C@]2(C)CC(=O)C=C(C)C")
16

###

- Tested on: Colletotrichum gloeosporioides
- method.notes: Antifungal activity against Colletotrichum gloeosporioides QDAU-17 assessed as reduction in microbial growth by broth microdilution method
- Assay type: functional
observation.type: MIC (µg/mL)

>>> meas_value("C=C1CC[C@@]2(O)C[C@@H]1[C@]2(C)[C@@H](/C=C/C(C)(C)O)OC(C)=O")
8
>>> meas_value("C=C1CC[C@@]2(C[C@@H](O)C(=O)OC)C[C@@H]1[C@](C)([C@H](O)CC=C(C)C)O2")
64
>>> meas_value("C=C1CC[C@@]2(O)C[C@@H]1[C@]2(C)[C@H](OC(C)=O)C(=O)C=C(C)C")
16
>>> meas_value("C=C1CC[C@@]2(O)C[C@@H]1[C@]2(C)CC(=O)C=C(C)C")
8
>>> meas_value("C=C1C(=O)C[C@@]2(C)C[C@@H]1[C@](C)([C@H](O)CC=C(C)C)O2")
8
>>> meas_value("C=C1CC[C@@]2(O)C[C@@H]1[C@]2(C)[C@@H](CC=C(C)C)OC(C)=O")
16
>>> meas_value("C[C@@H]1[C@H](O)[C@@H](C)/C=C/C=C/C=C/C=C/C=C/C=C/C=C/[C@H](O[C@@H]2O[C@H](C)[C@@H](O)[C@H](N)[C@@H]2O)C[C@@H]2O[C@](O)(C[C@@H](O)C[C@@H](O)[C@H](O)CC[C@@H](O)C[C@@H](O)CC(=O)O[C@H]1C)C[C@H](O)[C@H]2C(=O)O")
8
>>> meas_value("C=C1[C@H](O)C[C@H]2C[C@@H]1[C@](C)([C@H](O)CC=C(C)C)O2")
2

###

// reported MIC for each item listed
- System: Penicillium digitatum
- method.notes: Antifungal activity against Penicillium digitatum QDAU-14 assessed as reduction in microbial growth by broth microdilution method
- Format: functional
observation.type: MIC (µg/mL)

>>> meas_value("C=C1CC[C@@]2(C[C@@H](O)C(=O)OC)C[C@@H]1[C@](C)([C@H](O)CC=C(C)C)O2")
8
>>> meas_value("C=C1C(=O)C[C@@]2(C)C[C@@H]1[C@](C)([C@H](O)CC=C(C)C)O2")
4
>>> meas_value("C=C1CC[C@@]2(O)C[C@@H]1[C@]2(C)[C@@H](CC=C(C)C)OC(C)=O")
8

###

// reported MIC for each item listed
- System: Vibrio harveyi
- method.notes: Antibacterial activity against Vibrio harveyi QDIO-7 assessed as reduction in microbial growth by broth microdilution method
- Assay type: functional
observation.type: MIC

>>> meas_value("C=C1CC[C@H](O)C[C@@H]1[C@@](C)(O)C(=O)/C=C/C(C)(C)O")
"> 64 µg/mL"
>>> meas_value("C=C1CC[C@H](O)C[C@@H]1[C@H](C)[C@H](O)C(=O)C=C(C)C")
"> 64 µg/mL"
>>> meas_value("C=C1CC[C@@]2(C[C@@H](O)C(=O)OC)C[C@@H]1[C@](C)([C@H](O)CC=C(C)C)O2")
"> 64 µg/mL"
>>> meas_value("C=C1CC[C@H](O)C[C@@H]1[C@H](C)C(=O)[C@H](O)C=C(C)C")
"> 64 µg/mL"
